System: 786-0
test.protocol: NCI tumour cell line growth inhibition, 48 h
The source made the active and inactive calls. No stated cut-off is given here; in the data, active = GI50 up to about 1.1 µM and inactive = higher.
measurement.name: GI50

Worked cases, GI50 given:
INSERT INTO assay_data (compound, experimental_value) VALUES
  ('CCOc1ccc2ccc3cccnc3c2n1', '66.2 µM (inactive)'),
  ('COC(=O)C(Cc1nc2ccc(Cl)cc2nc1O)/C(=N/O)C(=O)Nc1cccc(Cl)c1C (configuration not stated)', '> 100 µM (inactive)'),
  ('CCC1(CC)C(=O)NC(=S)N=C1N', '> 100 µM (inactive)'),
  ('O=C(O)C(Cc1ccc(O)c([N+](=O)[O-])c1)N1C(=O)c2ccccc2C1=O (configuration not stated)', '> 100 µM (inactive)');

What does the record list as GI50 for N#CC(c1ccc(Cl)cc1)c1cccc(Cl)n1 (configuration not stated) ?
82.2 µM (inactive)

Also CCOc1cccc2sc(N)nc12 ?
> 100 µM (inactive)

Also CCOP(=O)(OCC)/C(C#N)=C/c1cnc[nH]1 ?
> 100 µM (inactive)

Also O=P(O)(O)c1ccc(-c2ccc(I)cc2)cc1 ?
> 100 µM (inactive)

Also CS/C(=N\c1ccccc1Cl)NC(=O)c1ccc(Br)cc1 ?
27.1 µM (inactive)

Also CCn1c(=O)c2nc(SC)sc2n(-c2ccccc2)c1=O ?
> 100 µM (inactive)

Also CC1(C)C=[N+]([O-])C(C)(C)N1O ?
> 10 µM (inactive)

Also Nc1nc(N)nc(CCCCc2nc(N)nc(N)n2)n1 ?
> 100 µM (inactive)

====

Test system: KM12
test.protocol: NCI tumour cell line growth inhibition, 48 h
Where a name gives a salt, the structure may show the parent alone. The source made the active and inactive calls. No stated cut-off is given here; in the data, active = GI50 up to about 1.1 µM and inactive = higher. Square brackets hold non-standard residues; d marks the D form. Peptide text beside a SMILES is read from it. 2Nal = N[CH](Cc1ccc2ccccc2c1)C(=O)O
Lab note: assign the record to one of active, inactive

INSERT INTO results (compound, discrete_label) VALUES
  ('CC(C)C(NC(=O)C(CCCCN)NC(=O)C(Cc1c[nH]c2ccccc12)NC(=O)C(Cc1ccc(O)cc1)NC(=O)C(CS)NC(=O)C(N)Cc1ccc2ccccc2c1)C(=O)NC(CS)C(=O)NC(C(N)=O)C(C)O (stereo not given) (H-[2Nal]CYWKVCT-NH2; configuration not given here)', 'inactive'),
  ('C=C1C(=O)O[C@H]2[C@H]3O[C@@H](C[C@@H]12)[C@@]1(C)CC[C@H](O1)[C@H](C)CCC[C@H]3C', 'inactive'),
  ('COC(=O)C(Cc1nc2ccc(Cl)cc2nc1O)/C(=N/O)C(=O)Nc1cccc(Cl)c1C (stereo not given)', 'inactive'),
  ('O=C1C2C3C=C4c5ccccc5N(c5ccccc5)C4(C2C(=O)N1c1ccc(Cl)cc1)[C@H]1C(=O)N(c2ccc(Cl)cc2)C(=O)[C@@H]31 (stereo not given in full)', 'inactive'),
  ('COc1ccc(OC)c(C23CCCC(C2)N(C)CC3)c1 (stereo not given)', 'inactive');

Name the outcome recorded for O=c1c2c3ccccc3[nH]c2c2cccc3c2n1CCC3 in the assay.
inactive

Also CCOc1cccc2sc(N)nc12 ?
inactive

Also COc1cc2c3c(n(Cc4ccccc4)c(=O)c2cc1OC)-c1ccccc1C3=O ?
inactive

Also O=C1C2=C(CCCCC2)C2CCCCC12O (stereo not given) ?
inactive

Also Cc1ccccc1NC(=O)/C(=N\NC(N)=S)C(C#N)c1ccccc1 (stereo not given) ?
inactive

Also CC[C@]12CN3CCc4c([nH]c5ccccc45)[C@@](C(=O)OC)(c4cc5c(cc4OC)N(C)[C@H]4[C@@](O)(C(=O)OC)[C@H](OC(C)=O)[C@]6(CC)C=CCN7CC[C@]54[C@@H]76)CC(C3)[C@H]1O2 (stereo not given in full) [VINLEUROSINE SULFATE] ?
active

====

Tested on: MDA-MB-231
test.protocol: NCI tumour cell line growth inhibition, 48 h
Active and inactive are the calls of the source. Cut-off read from the data, not from the text of the source: active = GI50 up to about 1.1 µM and inactive = higher.
measurement.name: GI50

Worked cases, GI50 given:
INSERT INTO assay_data (molecule, measurement_name, experimental_value) VALUES
  ('CCOC(=O)N/N=C(\CC)NO', 'GI50', '> 100 µM (inactive)'),
  ('O=C(N/N=C/c1ccc([N+](=O)[O-])cc1)Nc1ccc(Br)cc1', 'GI50', '> 100 µM (inactive)'),
  ('Cc1cnoc1/N=C1\C=C(O)C(=O)c2ccccc21', 'GI50', '25.6 µM (inactive)'),
  ('Cc1cn(S(=O)(=O)c2ccccc2)c2c(OCc3ccccc3)cc(NC(=O)c3cc4cc([N+](=O)[O-])ccc4s3)cc12', 'GI50', '49.1 µM (inactive)'),
  ('COc1ccc2c(c1OC)OCC(CN(C)C)C2=O (centres undefined)', 'GI50', '18.8 µM (inactive)'),
  ('Cn1c(C(C#N)c2cc(Cl)ncn2)nc2ccccc21 (centres undefined)', 'GI50', '> 100 µM (inactive)'),
  ('Cc1cc(NS(=O)(=O)c2ccc(Nc3c4ccccc4nc4ccc(C(=O)Nc5ccc(S(=O)(=O)N=C(N)N)cc5)cc34)cc2)no1', 'GI50', '> 100 µM (inactive)'),
  ('O/N=C1/CC2(N3CCOCC3)C3CC/C(=N\O)C2CC1(Cc1ccccc1)C3 (centres undefined)', 'GI50', '> 100 µM (inactive)');

What does the record list as GI50 for Cc1cc(=O)oc2cc(OC(=O)Nc3ccc(Cl)c(Cl)c3)ccc12 ?
26 µM (inactive)

Also C=C1C(=O)O[C@H]2[C@H]3O[C@@H](C[C@@H]12)[C@@]1(C)CC[C@H](O1)[C@H](C)CCC[C@H]3C ?
1.65 µM (inactive)

Also C[C@H]1C[C@H]2[C@@H]3CCC4=CC(=O)C=C[C@]4(C)C3=CC[C@]2(C)[C@@]1(O)C(=O)CO ?
> 100 µM (inactive)

Also COC(=O)C1=C(C(=O)OC)SC2(S1)C1=C(CCCC1)SC(C(=O)OC)=C2C(=O)OC ?
15.8 µM (inactive)

Also CCOC(=O)C1(C#N)C2(C#N)C(N)=NC(ON=C(C)C)(ON=C(C)C)C12C#N (centres undefined) ?
62.4 µM (inactive)

====

Recorded GI50, one value per entry.
Tested on: MOLT-4
test.protocol: NCI tumour cell line growth inhibition, 48 h
Calls of active or inactive are those of the source. No stated cut-off is given here; in the data, active = GI50 up to about 1.1 µM and inactive = higher.

INSERT INTO measurements (compound, measurement_name, experimental_value) VALUES
  ('CC(=O)c1sc2c(c1OC(=O)c1ccc(Cl)cc1)c(=O)n(-c1ccccc1)c(=S)n2-c1ccccc1', 'GI50', '1.56 µM (inactive)'),
  ('COc1cc2c(cc1OC)C1=CCC(c3ccccc3)[N+]1(C)CC2 (stereo not given)', 'GI50', '> 100 µM (inactive)'),
  ('COc1ccc(C(C2=C(O)CC(C)OC2=O)C2=C(O)CC(C)OC2=O)cc1 (stereo not given)', 'GI50', '> 100 µM (inactive)'),
  ('COc1ccc2nc(NCN3C(=O)c4ccccc4C3=O)sc2c1', 'GI50', '> 100 µM (inactive)');

Moving on to the next compound.
Which measured GI50 belongs to CC(C)(C)C(=O)/C=C(\OB(F)F)C(C)(C)C , tested on MOLT-4?
> 100 µM (inactive)

====

Test system: NCI-H23
test.protocol: NCI tumour cell line growth inhibition, 48 h
Calls of active or inactive are those of the source. Cut-off read from the data, not from the text of the source: active = GI50 up to about 1.1 µM and inactive = higher.
measurement.name: GI50

Worked cases, GI50 given:
INSERT INTO results (compound, experimental_value) VALUES
  ('CC(C)C1=CC23CCC4C(C)(C(=O)O)CCCC4(C)C2CC1C1C(=O)N(c2ccc(C(=O)O)cc2)C(=O)C13 (stereo not given)', '> 100 µM (inactive)'),
  ('C=CC(O)(CBr)CCC(Br)C(=C)C (stereo not given)', '> 10 µM (inactive)'),
  ('COc1ccc2c(c1OC)OC[C@@H](C1=CC(=O)C=C(O)C1=O)C2', '16.5 µM (inactive)'),
  ('CCOC(=O)C1=NN(c2ccccc2)C(=O)/C1=C\NC(=S)C(N)=S', '87.1 µM (inactive)');

What does the record list as GI50 for CCCCC/C(=N\c1[nH]nnc1C(N)=O)OCC ?
> 100 µM (inactive)

Also COc1ccc(C2=Cc3nc2c(-c2ccccc2)c2ccc([nH]2)c(-c2ccccc2)c2nc(c(-c4ccccc4)c4ccc([nH]4)c3-c3ccccc3)C=C2)cc1 ?
> 100 µM (inactive)

Also C/C1=C/C(C)CC(C)OC(=O)C(C)NC(=O)C(Cc2ccc(O)c(I)c2)N(C)C(=O)CNC(=O)C(C)C1 (stereo not given) ?
0.409 µM (active)

Also O=C(N/C(=C\c1ccc([N+](=O)[O-])cc1)c1nc2cc(Cl)ccc2[nH]1)c1ccccc1 ?
18.1 µM (inactive)

Also COc1cc2c(c(OC)c1OC)-c1ccc(SC)c(=O)cc1[C@@H](NCc1ccc(C#N)cc1)CC2 ?
0.00274 µM (active)

Also Cc1cn(S(=O)(=O)c2ccccc2)c2c(OCc3ccccc3)cc(NC(=O)c3cc4cc([N+](=O)[O-])ccc4s3)cc12 ?
> 100 µM (inactive)

Also C/C(CC(=O)Nc1ccc(Cl)cc1)=N\NC(=O)C[n+]1ccccc1 ?
> 100 µM (inactive)

Also COc1cccc(OC)c1/C=C1\OC(=O)c2cccc(OC)c21 ?
19.4 µM (inactive)
